Could you please report measured % ADAMTS13 activity in presence of scFv inhibitor (no rabbit IgG) for the items listed next?
Target: T1, human ADAMTS13 (human, UniProt Q76LX8 75-1427)
T1 sequence (looked up): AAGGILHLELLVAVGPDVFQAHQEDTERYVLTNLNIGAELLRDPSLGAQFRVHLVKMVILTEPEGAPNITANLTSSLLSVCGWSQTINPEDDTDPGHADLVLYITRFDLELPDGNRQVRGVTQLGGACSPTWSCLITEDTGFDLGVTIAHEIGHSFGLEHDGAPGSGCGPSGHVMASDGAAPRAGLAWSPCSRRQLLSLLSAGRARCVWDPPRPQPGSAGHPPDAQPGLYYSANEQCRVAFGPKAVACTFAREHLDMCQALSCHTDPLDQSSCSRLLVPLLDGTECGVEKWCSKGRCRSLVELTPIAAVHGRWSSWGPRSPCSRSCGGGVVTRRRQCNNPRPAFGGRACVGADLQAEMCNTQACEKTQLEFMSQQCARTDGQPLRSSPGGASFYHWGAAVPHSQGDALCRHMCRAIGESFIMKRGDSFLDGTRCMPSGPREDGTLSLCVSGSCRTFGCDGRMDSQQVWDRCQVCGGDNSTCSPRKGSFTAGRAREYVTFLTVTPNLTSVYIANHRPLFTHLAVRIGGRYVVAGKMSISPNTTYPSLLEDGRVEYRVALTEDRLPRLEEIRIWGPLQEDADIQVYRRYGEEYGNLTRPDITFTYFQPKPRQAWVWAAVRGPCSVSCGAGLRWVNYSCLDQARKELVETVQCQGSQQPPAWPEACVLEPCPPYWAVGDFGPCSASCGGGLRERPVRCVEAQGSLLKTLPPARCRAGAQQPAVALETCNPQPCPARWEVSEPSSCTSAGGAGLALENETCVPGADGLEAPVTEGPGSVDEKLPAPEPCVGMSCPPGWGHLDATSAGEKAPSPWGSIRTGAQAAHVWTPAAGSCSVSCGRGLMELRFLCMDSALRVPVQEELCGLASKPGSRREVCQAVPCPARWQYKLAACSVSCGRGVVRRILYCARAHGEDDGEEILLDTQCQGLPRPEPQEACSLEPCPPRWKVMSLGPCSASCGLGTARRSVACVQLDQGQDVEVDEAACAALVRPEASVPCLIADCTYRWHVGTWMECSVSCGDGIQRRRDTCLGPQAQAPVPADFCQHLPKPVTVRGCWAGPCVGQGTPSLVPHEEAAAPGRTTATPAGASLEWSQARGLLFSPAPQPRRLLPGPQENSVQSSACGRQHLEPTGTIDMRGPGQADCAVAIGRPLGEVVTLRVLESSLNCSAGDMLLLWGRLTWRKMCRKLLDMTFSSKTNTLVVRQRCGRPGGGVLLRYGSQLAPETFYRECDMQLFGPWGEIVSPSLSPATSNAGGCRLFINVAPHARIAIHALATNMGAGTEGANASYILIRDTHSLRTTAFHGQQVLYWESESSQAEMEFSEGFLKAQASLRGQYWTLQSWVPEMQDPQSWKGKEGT
Experiment: cell-based or functional assay
Your answer should be a number followed by the unit of measure.

Q) Using the record for scFv 1-420 (scFv, V domains shown) VH: QVQLVQSGAEVKKPGSSVKVSCKASGGAFTMYTINWVRQAPGRGLEWMGRIIPILGITDYAQKFQGRGTITADKSTSTAYLELSGLTSEDTAVYYCAREFSGGNYFDFWGQGTLVTVSS VL: ELELTQPPSVSISPGKTAKIFCGGNSIGRKSVHWYQQKPGQAPVLVVYDDSDRPSGIPERFSGSNSGNTATLTISRVEAGDEADYYCQVWDSSSDYVVFGGGTKLTVL , report its % ADAMTS13 activity in presence of scFv inhibitor (no rabbit IgG).
A) 0%

Q) Using the record for scFv 1-431 (scFv, V domains shown) VH: QVQLVQSGAEVKKFGSSVKVSCKASGGTFSSYTMSWVRQAPGQGLEWMGSFVPILERANYAQGFQGRVTFTADKSTSTAYMELGSLRSEDTAVYYCARDLGDFGDSWGQGTLVTVSS VL: ELELTQPPSVSVSPGQTARITCSGDALPKQYAYWYQQKPGQAPVLVIYKDSERPSGIPERFSGSSSGTTVTLTISGVQAEDEADYYCQSADSSGTYVFGGGTKLTVL , report its % ADAMTS13 activity in presence of scFv inhibitor (no rabbit IgG).
A) 19%

Q) Using the record for scFv 1-416 (scFv, V domains shown) VH: QVQLVQSGAEVKKPGSSVRVSCTASGSNFSSHTINWVRQAPGQGLEWMGKVIPVLDISKHAQTFLGRVIITADKSTSTAYLELSSLRSEDTAIYYCAMDSVYGNFDFWGQGTLVTVSS VL: ELVLTQPPSVSVSPGQTARITCSGDAFPKHYAYWYQQKPGQAPVLVIYKDTERPSGIPERFSGSSSGTTATLTISGVQAEDEADYYCQSTDSSDTWVFGAGTKVTVL , report its % ADAMTS13 activity in presence of scFv inhibitor (no rabbit IgG).
A) 20%

Q) Using the record for scFv 1-428 (scFv, V domains shown) VH: EVQLVQSGAEVKKPGSSVKVSCKASGSNFSSHTINWVRQAPGHGLEWMGKIIPVLDISKDAETFLGRVVITADKSTSTAYMELSSLRSEDTAIYYCAMDSVYGNFDFWGQGTLVTVSS VL: ELELTQPPSVSVSPGQTARITCSGDALPKQYAYWYQQKPGQAPVLVIYKDSERPSGIPERFSGSSSGTTVTLTISGVQAEDEADYYCQSADSSGTYEVFGGGTKLTVL , report its % ADAMTS13 activity in presence of scFv inhibitor (no rabbit IgG).
A) 7%

Measured values drawn from patent US20190031771A1 for this set.
